This collection of values is drawn from the supplement of paper PMC10646978.

System: RAW-Dual (murine macrophage reporter line)
assay.name: NF-kB reporter (SEAP) activity fold change vs agonist alone; higher = enhanced NF-kB activity
experimental.parameters: modulator concentration 10 µM; agonist: LPS 0.1 ug/mL
parameter.measured: NF-kB reporter
// response body must contain only the number

Form: Entry = COc1ccc(-n2c(C)nc3ccc(NC(=O)CC4CCCC4)cc3c2=O)cc1 | System = RAW-Dual (murine macrophage reporter line) | NF-kB reporter = ____
1.06

Form: Entry = CN1C(=O)C(=Cc2nc3ccccc3c(=O)n2-c2ccccc2)c2ccccc21 | System = RAW-Dual (murine macrophage reporter line) | NF-kB reporter = ____
0.867

Form: Entry = Cc1cc(N2CCNCC2)c2ccccc2n1 | System = RAW-Dual (murine macrophage reporter line) | NF-kB reporter = ____
0.789

Form: Entry = CC(C)=CCOc1c2occc2cc2ccc(=O)oc12 | System = RAW-Dual (murine macrophage reporter line) | NF-kB reporter = ____
0.823

Form: Entry = CC(C)N(CCC(C(N)=O)(c1ccccc1)c1ccccn1)C(C)C (stereo not given) | System = RAW-Dual (murine macrophage reporter line) | NF-kB reporter = ____
0.945

====

System: RAW-Dual (murine macrophage reporter line)
assay.name: NF-kB reporter (SEAP) activity fold change vs agonist alone; higher = enhanced NF-kB activity
experimental.parameters: modulator concentration 10 µM; agonist: MPLA […]
Kindly state NF-kB reporter for each of the entries shown.

# query: NF-kB reporter of entry O=C1NC(=O)C(=CNc2ccccc2C(F)(F)F)C(=O)N1
1.04

# query: NF-kB reporter of entry Fc1ccc(CNCCc2c[nH]c3ccccc23)cc1
0.955

# query: NF-kB reporter of entry Cl.N=C(N)NN
0.917

# query: NF-kB reporter of entry CCCCCC(=O)NC(Oc1ccc([N+](=O)[O-])cc1)C(Cl)(Cl)Cl (stereo not given)
1

# query: NF-kB reporter of entry CC(C)NC(C)C(O)c1ccc2c(c1)CCCC2.Cl (stereo not given)
1.1

# query: NF-kB reporter of entry CCC1(c2cccc(O)c2)CCCCN(C)C1.Cl (stereo not given)
1

# query: NF-kB reporter of entry CCNc1nc(Cl)nc(NC(C)C)n1
1.01

# query: NF-kB reporter of entry CCC1(C)CC(=O)NC(=O)C1
0.941

# query: NF-kB reporter of entry COc1cc2c(cc1OC)C1C(=O)c3ccc4c(c3OC1CO2)CC(C(C)C)O4 (stereo not given)
2.31

# query: NF-kB reporter of entry ClC(Cl)=C(c1ccc(Cl)cc1)c1ccc(Cl)cc1
1.07

# query: NF-kB reporter of entry O=C1NC(=O)C(=Cc2cc(Br)ccc2OCc2ccc(Cl)cc2Cl)C(=O)N1
0.794

# query: NF-kB reporter of entry CC12CCC3C(CCC4CC(Cl)CCC43C)C1CCC2=O (stereo not given)
0.906

# query: NF-kB reporter of entry Nc1nc(N)nc(NC2CC2)n1
1.67

# query: NF-kB reporter of entry COc1ccc2c3c([nH]c2c1)C(C)=NCC3
0.852

# query: NF-kB reporter of entry NC(=O)CN1CC(O)CC1=O (stereo not given)
1

# query: NF-kB reporter of entry Cc1cc(C(C#N)c2ccc(Cl)cc2)c(Cl)cc1NC(=O)c1cc(I)cc(I)c1O (stereo not given)
0.834

# query: NF-kB reporter of entry COc1ccc(CCNCc2ccc3ccccc3c2)cc1
1.65

# query: NF-kB reporter of entry CC12CCC3C(CCC4CC(O)CCC43C)C1CCC2O (stereo not given)
2.43

# query: NF-kB reporter of entry Nc1ccncc1
0.879

# query: NF-kB reporter of entry CC12CCC3C(CCC4CC(=O)CCC43C)C1CCC2=O (stereo not given)
0.933

# query: NF-kB reporter of entry CC[C@@H](C(N)=O)N1CCCC1=O
0.993

# query: NF-kB reporter of entry CCNCC.O=C(O)Cc1ccccc1Nc1c(Cl)cccc1Cl
0.993

# query: NF-kB reporter of entry COc1cc(OC)c(OC)cc1C=O
1.02

# query: NF-kB reporter of entry CCOc1cc(C=C2N=C(c3cccc(C)c3)OC2=O)ccc1OC(=O)Cc1ccccc1
0.914

# query: NF-kB reporter of entry CCCC(=O)c1ccc(N2CCNCC2)c(F)c1
0.961

# query: NF-kB reporter of entry CC(=O)OC1CCC2(C)C(CCC3C4CCC(=O)C4(C)CCC32)C1 (stereo not given)
1.02

# query: NF-kB reporter of entry CCOC(=O)c1ccccc1-c1ccc(C=C2C(=O)NC(=O)N(c3ccc(C)cc3)C2=O)o1
0.971

# query: NF-kB reporter of entry CN(C)CCC(=O)c1ccccc1
0.33

# query: NF-kB reporter of entry CCC1CN2CCC1CC2C(O)c1ccnc2ccc(OC)cc12 (stereo not given)
1.1

# query: NF-kB reporter of entry C=C(C)C1Cc2c(ccc3c2OC2COc4cc(OC)c(OC)cc4C2C3=O)O1 (stereo not given)
1.75

# query: NF-kB reporter of entry CC12CCC3C(CC=C4CC(O)CCC43C)C1CC(=Cc1cccc(F)c1)C2=O (stereo not given)
1.05

# query: NF-kB reporter of entry COC(=O)COc1ccc(C=C2C(=O)NC(=S)N(c3cccc(Cl)c3Cl)C2=O)cc1OC
0.932

# query: NF-kB reporter of entry O=Cc1cn(Cc2cccc3ccccc23)c2ccccc12
1.16

# query: NF-kB reporter of entry Cc1ccc(C)c2sc(N3CCN(C)CC3)nc12.Cl
1.07

# query: NF-kB reporter of entry Cc1c(NN=C2C(=O)NC(=O)NC2=O)c(=O)n(-c2ccccc2)n1C
0.958

====

Tested on: RAW-Dual (murine macrophage reporter line)
assay.name: IRF reporter (Lucia luciferase) activity fold change vs agonist alone; higher = enhanced IRF activity
experimental.parameters: modulator concentration 10 µM; agonist: MPLA […]
Label fulfilled when IRF reporter is at or above 1; otherwise label not fulfilled.

Please indicate if the recorded IRF reporter for CC12CCC3C(CCC4CC(Cl)CCC43C)C1CCC2=O (configuration not stated) meets or exceeds 1.
not fulfilled

Please indicate if the recorded IRF reporter for COc1ccc(C(CN(C)C)C2(O)CCCCC2)cc1.Cl (configuration not stated) meets or exceeds 1.
not fulfilled

Please indicate if the recorded IRF reporter for N=C(N)NOCCC(N)C(=O)O (configuration not stated) meets or exceeds 1.
not fulfilled

Please indicate if the recorded IRF reporter for CN1C(=O)C(=Cc2nc3ccccc3c(=O)n2-c2ccccc2)c2ccccc21 meets or exceeds 1.
fulfilled

Please indicate if the recorded IRF reporter for O=C(NCCN1CCN(c2ccccc2)CC1)c1ccc(F)cc1 meets or exceeds 1.
not fulfilled

Please indicate if the recorded IRF reporter for CC(C(O)c1ccccc1)N(C)C (configuration not stated) meets or exceeds 1.
fulfilled

Please indicate if the recorded IRF reporter for CCOC(=O)c1ccccc1-c1ccc(C=C2C(=O)NC(=O)N(c3ccc(C)cc3)C2=O)o1 meets or exceeds 1.
fulfilled

====

Test system: RAW-Dual (murine macrophage reporter line)
assay.name: NF-kB reporter (SEAP) activity fold change vs agonist alone; higher = enhanced NF-kB activity
experimental.parameters: modulator concentration 10 µM; agonist: LPS 0.1 ug/mL
Kindly state NF-kB reporter for each of the entries shown.
// response body must contain only the number

# query: NF-kB reporter of entry C[C@@H]1CC[C@H]2[C@@H](C)C(=O)O[C@@H]3O[C@@]4(C)CC[C@@H]1[C@]32OO4
0.916

# query: NF-kB reporter of entry O=C1NC(=O)C(C(CC(=O)c2ccccc2)c2ccccc2)C(=O)N1 (stereo not given)
0.984

# query: NF-kB reporter of entry CCC1(c2ccc(N)cc2)CCC(=O)NC1=O (stereo not given)
1.04

# query: NF-kB reporter of entry O=C1NC(=O)C(=Cc2cccn2-c2ccc(Br)cc2)C(=O)N1
0.758

# query: NF-kB reporter of entry Cc1ccc(-c2nn(-c3ccccc3)cc2C=C2C(=O)NC(=S)NC2=O)o1
1.01

# query: NF-kB reporter of entry Cc1cccc(COc2ccc(C=C3C(=O)NC(=S)NC3=O)cc2)c1
0.875

# query: NF-kB reporter of entry CC(=O)Oc1ccc(C=Cc2cc(OC(C)=O)cc(OC(C)=O)c2)cc1
1.15

# query: NF-kB reporter of entry O=C(O)CCCc1ccc(N(CCCl)CCCl)cc1
1.03

# query: NF-kB reporter of entry CN1C2CCC1CC(OC(=O)C(CO)c1ccccc1)C2 (stereo not given)
1.19

# query: NF-kB reporter of entry O=[N+]([O-])Nc1ccc(Br)cn1
0.98

# query: NF-kB reporter of entry CN1Cc2c(ccc3c2OCO3)C2C(O)Cc3cc4c(cc3C21)OCO4 (stereo not given)
1.49

# query: NF-kB reporter of entry O=C(O)COc1cc(Cl)c(Cl)cc1Cl
0.836

# query: NF-kB reporter of entry CCCC(=O)c1ccc(N2CCNCC2)c(F)c1
1.12

# query: NF-kB reporter of entry COc1cc2c(cc1OC)C1CC(=O)C(CC(C)C)CN1CC2 (stereo not given)
1.04

# query: NF-kB reporter of entry CCNc1nc(Cl)nc(NC(C)C)n1
0.873

# query: NF-kB reporter of entry COc1ccc(CCNCc2ccc(OC)c(OC)c2OC)cc1OC
0.876

# query: NF-kB reporter of entry COc1ccc(CNCCc2c[nH]c3ccccc23)c(OC)c1C
0.924

# query: NF-kB reporter of entry CC12CCC3C(CC=C4CC(O)CCC43C)C1CC(=Cc1cccc(F)c1)C2=O (stereo not given)
1

# query: NF-kB reporter of entry O=C1NC(=O)C(=Cc2cc(Br)ccc2OCc2ccc(Cl)cc2Cl)C(=O)N1
0.945

# query: NF-kB reporter of entry CC(=O)OC1CCC2(C)C(=CCC3C4CCC(=O)C4(C)CCC32)C1 (stereo not given)
0.901
